target_entity: T1, 4H72-bN
T1 chain: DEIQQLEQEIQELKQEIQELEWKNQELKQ
procedure_summary: two-hybrid library CCNG1;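 further: natural log of median RNA to DNA barcode read ratio; higher means stronger binding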
readout_type: interaction score

Solved entries:
- binder: "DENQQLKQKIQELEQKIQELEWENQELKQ [4H1828-bN]"
  result_number: 0.18
- binder: "DEIQQLKQEIQELKQENQELKWKNQELEQ [4H607-bN]"
  result_number: -1.65

A = DKNQQLKQKNQELEQKIQELEWEIQELEQ [4H4001-bN]
B = DEIQQLEQKIQELKQENQELEWEIQELKQ [4H338-bN]
C = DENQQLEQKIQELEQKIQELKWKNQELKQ [4H1328-bN]
Problem: Order each entry by recorded interaction score, climbing from the minimum. In your reply, arrange the labels in the requested order.
Solution: A, B, C
(A: -1.03, B: -0.606, C: 0.764)

A = DKNQQLKQEIQELEQENQELEWKIQELKQ [4H3606-bN]
B = DEIQQLEQKIQELKQKNQELEWEIQELKQ [4H370-bN]
Problem: Identify the entry with the larger interaction score. Options: A and B Mark your answer with the label of the selected entry.
Solution: B

P = DEIQQLKQENQELKQEIQELKWKIQELEQ [4H717-bN]
Q = DKNQQLEQEIQELKQKNQELEWKIQELEQ [4H3189-bN]
Problem: Field: lower recorded interaction score (choose P or Q ) # answer = label of selected item
Solution: P
